experimental-target: LXRβ/SRC1 (Homo sapiens)
Construct: human his-tagged LXRβ LBD (216-461); His tag; made in house; host or cells: Escherichia coli BL21(DE3)
experimental-protocol: SPR cofactor recruitment, LXRβ LBD binding to immobilized SRC1 coactivator peptide
study-conditions: LXRβ LBD 0.02–10 µM equilibrated with compound (50 μM), immobilized SRC1 peptide; read-out: LXRβ/SRC1 Kd
Source text: The peptides carried an N-terminal biotin for surface immobilization on a Xantec NID200M Sensor Chip (NTA-derivatized carboxymethyldextran hydrogel, XanTec bioanalytics GmbH) preloaded with Ni^2+. […] The binding level at equilibrium was monitored for all samples, including the reference sample that contained DMSO at equal amount as tested compounds. All data were normalized to this reference sample in order to quantify the effects on peptide binding without bias by receptor instability. […]
measurement-name: Kd (µM)
Answers are plain numbers, in µM.

[in] I am curious: what Kd value has been reported for CC(C)(O)c1cn(-c2ccc(-c3cc(F)c(CO)c(S(C)(=O)=O)c3)cc2F)c(C(C)(C)c2c(Cl)cccc2Cl)n1 [BMS-852927] ?
[out] 19.8

----------
experimental-target: LXRβ (Homo sapiens, UniProt P55055)
Construct: expression vectors pSG5-Gal4-LXRα LBD or pSG5-Gal4-LXRβ LBD; expressed in transfected cells; host or cells: U2OS osteosarcoma cells
experimental-protocol: Gal4 one hybrid reporter gene (transactivation) assay in U2OS cells, LXRβ
Format: cell-based
study-conditions: U2OS cells, Gal4-LXRβ LBD; value (SD, n); read-out: LXRβ transactivation pEC50 (converted)
I'd be grateful if you could share measured EC50 for these entries.

Here's what some known entries look like.
>  <compound>
CC(CCCc1cccc(S(N)(=O)=O)n1)NC1=C(c2ccccc2)S(=O)(=O)N(C(C)C)C1=O (centres unmarked)

>  <measurement-name>
EC50

>  <value-measured>
8.71 nM

$$$$
>  <compound>
CN(C)C(=O)c1cnc(N2CC[C@@H](CNC3=C(c4ccccc4)S(=O)(=O)N(C(C)(C)C)C3=O)C2)c(Cl)c1

>  <measurement-name>
EC50

>  <value-measured>
97.7 nM

$$$$
>  <compound>
O=C1C(Cc2ccccc2)=C(NCCCCc2ccccc2)C(=O)N1Cc1ccccc1

>  <measurement-name>
EC50

>  <value-measured>
1290 nM

$$$$
>  <compound>
CC(C)(O)c1cn(-c2ccc(-c3cc(F)c(CO)c(S(C)(=O)=O)c3)cc2F)c(C(C)(C)c2c(Cl)cccc2Cl)n1

>  <measurement-name>
EC50

>  <value-measured>
> 20000 nM

$$$$
>  <compound>
O=C(O)Cc1ccc(CNC(=O)[C@@H]2Cc3ccccc3N2S(=O)(=O)c2ccc(-c3ccccc3C(F)(F)F)cc2)cc1 [F1, reference compound]

>  <measurement-name>
EC50

>  <value-measured>
3890 nM

$$$$

Take each entry in turn and give its EC50.
1. CC(C)N1C(=O)C(NCCCCc2cccc(S(N)(=O)=O)n2)=C(c2ccccc2)S1(=O)=O
2. O=C(O)Cc1cccc(OCCCN(Cc2cccc(C(F)(F)F)c2Cl)CC(c2ccccc2)c2ccccc2)c1 [GW3965, reference compound]
3. CC(C)(C)N1C(=O)C(NC2CCN(c3ncc(CC(=O)O)cc3Cl)CC2)=C(c2ccccc2)S1(=O)=O
4. CC(C)N1C(=O)C(NC2CCN(c3ncc(CC(=O)O)cc3Cl)CC2)=C(c2ccccc2)S1(=O)=O
5. CN(C)C(=O)c1cccc(CCCCNC2=C(c3ccccc3)S(=O)(=O)N(C(C)(C)C)C2=O)c1
6. CC(C)(C)N1C(=O)C(Cc2ccccc2)=C(NC2CCN(c3ncc(CC(=O)O)cc3Cl)CC2)C1=O

[out]
75.9 nM
347 nM
148 nM
617 nM
30.9 nM
537 nM

----------
experimental-target: LXRα LBD (Homo sapiens, UniProt Q13133)
Sequence (Q13133 200-447): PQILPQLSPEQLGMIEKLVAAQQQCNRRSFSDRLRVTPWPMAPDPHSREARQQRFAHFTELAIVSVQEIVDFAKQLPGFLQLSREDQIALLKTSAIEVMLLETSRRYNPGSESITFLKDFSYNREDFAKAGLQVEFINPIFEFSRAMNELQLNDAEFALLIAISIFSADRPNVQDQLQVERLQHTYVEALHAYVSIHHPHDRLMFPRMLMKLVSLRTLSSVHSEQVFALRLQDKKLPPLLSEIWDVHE
experimental-protocol: biochemical
study-conditions: Receptor-binding affinity pKi LXRα, value (SD, n independent experiments)
Mark class 1 for Ki under 300 nM, class 0 if at or over.

>  <compound>
CC(C)N1C(=O)C(NCCCCc2cccc(S(N)(=O)=O)n2)=C(c2ccccc2)S1(=O)=O [AZ3]

>  <answer-label>
class 0

$$$$
>  <compound>
CC(C)N1C(=O)C(NC2CCN(c3ncc(CC(=O)O)cc3Cl)CC2)=C(c2ccccc2)S1(=O)=O [AZ6]

>  <answer-label>
class 0

$$$$
>  <compound>
CC(C)(C)N1C(=O)C(Cc2ccccc2)=C(NC2CCN(c3ncc(CC(=O)O)cc3Cl)CC2)C1=O [AZ7]

>  <answer-label>
class 0

$$$$
>  <compound>
CC(CCCc1cccc(S(N)(=O)=O)n1)NC1=C(c2ccccc2)S(=O)(=O)N(C(C)C)C1=O (centres unmarked) [AZ2]

>  <answer-label>
class 1

$$$$
>  <compound>
O=C(O)Cc1ccc(CNC(=O)[C@@H]2Cc3ccccc3N2S(=O)(=O)c2ccc(-c3ccccc3C(F)(F)F)cc2)cc1 [F1, reference compound]

>  <answer-label>
class 1

$$$$

[in] Ki under 300 nM? Item: O=C1C(Cc2ccccc2)=C(NCCCCc2ccccc2)C(=O)N1Cc1ccccc1 [AZ8]
[out] class 1

[in] Ki under 300 nM? Item: C[C@H](CC[C@@H]1OC1(C)C)[C@H]1CC[C@H]2[C@@H]3CC=C4C[C@@H](O)CC[C@]4(C)[C@H]3CC[C@]12C [24,25EC, 24(S),25-epoxycholesterol, reference compound]
[out] class 1

[in] Ki under 300 nM? Item: CC(C)(C)N1C(=O)C(NC2CCN(c3ncc(CC(=O)O)cc3Cl)CC2)=C(c2ccccc2)S1(=O)=O [AZ4]
[out] class 0

----------
experimental-target: LXRα (Homo sapiens)
Construct: expression vectors pSG5-Gal4-LXRα LBD or pSG5-Gal4-LXRβ LBD; expressed in transfected cells; host or cells: U2OS osteosarcoma cells
Sequence (Q13133 209-447 limits assumed): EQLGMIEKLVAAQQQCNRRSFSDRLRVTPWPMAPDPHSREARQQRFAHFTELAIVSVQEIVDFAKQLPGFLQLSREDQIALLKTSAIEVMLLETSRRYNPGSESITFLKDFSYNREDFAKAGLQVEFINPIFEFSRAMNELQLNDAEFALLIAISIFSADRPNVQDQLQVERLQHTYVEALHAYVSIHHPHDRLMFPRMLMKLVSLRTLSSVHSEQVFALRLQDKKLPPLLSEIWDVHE
experimental-protocol: Gal4 one hybrid reporter gene (transactivation) assay in U2OS cells, LXRα
Assay type: cell-based
study-conditions: U2OS, 40 h; maximal activation compared with a reference full agonist; value (SD, n); read-out: LXRα transactivation Agonist efficacy, %
Decide by Emax: equal to or exceeding 90% means Fulfilled, less means Not fulfilled.

>  <compound>
CN(C)C(=O)c1cnc(N2CC[C@@H](CNC3=C(c4ccccc4)S(=O)(=O)N(C(C)(C)C)C3=O)C2)c(Cl)c1 [AZ5]

>  <answer-label>
Not fulfilled

$$$$
>  <compound>
CC(CCCc1cccc(S(N)(=O)=O)n1)NC1=C(c2ccccc2)S(=O)(=O)N(C(C)C)C1=O (centres unmarked) [AZ2]

>  <answer-label>
Fulfilled

$$$$
>  <compound>
CC(C)N1C(=O)C(NCCCCc2cccc(S(N)(=O)=O)n2)=C(c2ccccc2)S1(=O)=O [AZ3]

>  <answer-label>
Fulfilled

$$$$
>  <compound>
CN(C)C(=O)c1cccc(CCCCNC2=C(c3ccccc3)S(=O)(=O)N(C(C)(C)C)C2=O)c1 [AZ1]

>  <answer-label>
Fulfilled

$$$$
>  <compound>
O=C(O)Cc1ccc(CNC(=O)[C@@H]2Cc3ccccc3N2S(=O)(=O)c2ccc(-c3ccccc3C(F)(F)F)cc2)cc1 [F1, reference compound]

>  <answer-label>
Not fulfilled

$$$$

[in] Could you please find out whether CC(C)(C)N1C(=O)C(NC2CCN(c3ncc(CC(=O)O)cc3Cl)CC2)=C(c2ccccc2)S1(=O)=O [AZ4] has Emax that meets 90% or exceeds it?
[out] Fulfilled

----------
I'd be grateful if you could share measured Ki for these entries.
experimental-target: LXRβ LBD (Homo sapiens)
Sequence (P55055 215-460 limits assumed): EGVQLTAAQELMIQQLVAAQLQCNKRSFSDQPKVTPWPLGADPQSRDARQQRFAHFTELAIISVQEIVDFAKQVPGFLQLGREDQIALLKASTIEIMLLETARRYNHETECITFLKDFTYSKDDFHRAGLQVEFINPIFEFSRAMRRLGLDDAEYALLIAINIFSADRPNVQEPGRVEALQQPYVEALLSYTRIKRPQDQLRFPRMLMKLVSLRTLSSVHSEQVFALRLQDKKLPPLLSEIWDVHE
experimental-protocol: biochemical
study-conditions: binding affinity to the LXRβ LBD
Answers are plain numbers, in nM.

Here's what some known entries look like.
>  <molecule>
CC(C)(O)c1cn(-c2ccc(-c3cc(F)c(CO)c(S(C)(=O)=O)c3)cc2F)c(C(C)(C)c2c(Cl)cccc2Cl)n1 [BMS-852927]

>  <unit-of-measurement>
nM

>  <Ki>
3

$$$$
>  <molecule>
CC(C)N1C(=O)C(NCCCCc2cccc(S(N)(=O)=O)n2)=C(c2ccccc2)S1(=O)=O [AZ3]

>  <unit-of-measurement>
nM

>  <Ki>
4

$$$$

[in] I am curious: what Ki value has been reported for CN(C)C(=O)c1cccc(CCCCNC2=C(c3ccccc3)S(=O)(=O)N(C(C)(C)C)C2=O)c1 [AZ1] ?
[out] 2

Reference for the values: paper PMC6874530
